System: 266295-075-R-J1-PDC spheroid viability
Experiment: Anticancer human tumor 266295-075-R-J1-PDC patient-derived head and neck squamous carcinoma cell line growth inhibition [POLQ]
Conditions: second compound 0.1 µM; first compound 0.1 µM; active compounds read low; spheroids with HUVEC and MSC
Measured viability, T/C of individual entries
ATTRIBUTE_MEASURED: viability, T/C (%)

{"COMPOUND": "C=CC(=O)N1CCN(c2nc(=O)n(-c3c(C)ccnc3C(C)C)c3nc(-c4c(O)cccc4F)c(F)cc23)C(C)C1 (stereo not drawn) + Cc1cccc(N(C)C(=O)C2C(O)CCN2c2nc(C)cc(C(F)(F)F)c2C#N)c1", "ATTRIBUTE_MEASURED": "viability, T/C", "REPORTED_VALUE": 92.7}
{"COMPOUND": "O=C(c1cc(Cc2n[nH]c(=O)c3ccccc23)ccc1F)N1CCN(C(=O)C2CC2)CC1 + Cc1cccc(N(C)C(=O)C2C(O)CCN2c2nc(C)cc(C(F)(F)F)c2C#N)c1", "ATTRIBUTE_MEASURED": "viability, T/C", "REPORTED_VALUE": 103}
{"COMPOUND": "O=C(c1cc(Cc2n[nH]c(=O)c3ccccc23)ccc1F)N1CCN(C(=O)C2CC2)CC1 + COC1C(OC(N)=O)C(O)C(Oc2ccc3c(O)c(NC(=O)c4ccc(O)c(CC=C(C)C)c4)c(=O)oc3c2C)OC1(C)C", "ATTRIBUTE_MEASURED": "viability, T/C", "REPORTED_VALUE": 114}

###

Measured viability, T/C of individual entries
Test system: 266295-075-R-J1-PDC spheroid viability
Assay: Anticancer human tumor 266295-075-R-J1-PDC cell line growth inhibition [POLQ];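 further: spheroids exposed to compounds for seven days before readout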
Conditions: second compound 10 µM; first compound 3.16 µM; active compounds read low; spheroids with HUVEC and MSC

{"COMPOUND": "CC1COCCN1c1cc(C2(S(C)(=N)=O)CC2)nc(-c2ccnc3[nH]ccc23)n1 (stereo not given) + Cc1cccc(N(C)C(=O)C2C(O)CCN2c2nc(C)cc(C(F)(F)F)c2C#N)c1", "TEST_SYSTEM": "266295-075-R-J1-PDC spheroid viability", "viability, T/C, %": 74.2}
{"COMPOUND": "CCc1cc2c(N3CCc4c(cc(Cn5ccnc5)cc4-c4cn(C)nc4C(F)(F)F)C3=O)ccnc2c(OC)n1 + Cc1cccc(N(C)C(=O)C2C(O)CCN2c2nc(C)cc(C(F)(F)F)c2C#N)c1", "TEST_SYSTEM": "266295-075-R-J1-PDC spheroid viability", "viability, T/C, %": 127}
{"COMPOUND": "Nc1ccn(C2OC(CO)C(O)C2(F)F)c(=O)n1 (stereo not given) + COC1C(OC(N)=O)C(O)C(Oc2ccc3c(O)c(NC(=O)c4ccc(O)c(CC=C(C)C)c4)c(=O)oc3c2C)OC1(C)C", "TEST_SYSTEM": "266295-075-R-J1-PDC spheroid viability", "viability, T/C, %": 82.3}
{"COMPOUND": "O=c1[nH]cc(F)c(=O)[nH]1 + Nc1ccc(C#CCN(C(=O)Cc2ncc(C(F)(F)F)cc2C(F)(F)F)c2ccc(F)cc2)nn1", "TEST_SYSTEM": "266295-075-R-J1-PDC spheroid viability", "viability, T/C, %": 88}
{"COMPOUND": "COc1cccc2c1C(=O)c1c(O)c3c(c(O)c1C2=O)CC(O)(C(=O)CO)CC3OC1CC(N)C(O)C(C)O1 (stereo not given) + Nc1ccc(C#CCN(C(=O)Cc2ncc(C(F)(F)F)cc2C(F)(F)F)c2ccc(F)cc2)nn1", "TEST_SYSTEM": "266295-075-R-J1-PDC spheroid viability", "viability, T/C, %": 53.3}

###

Measured viability, T/C of individual entries
Tested on: 266295-075-R-J1-PDC spheroid viability
Test: Anticancer human tumor 266295-075-R-J1-PDC cell line growth inhibition [POLQ];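 further: spheroids exposed to compounds for seven days before readout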
Conditions: second compound 0.316 µM; first compound 0.0316 µM; active compounds read low; spheroids with HUVEC and MSC
ATTRIBUTE_MEASURED: viability, T/C (%)

{"MOLECULE": "CCc1cc2c(N3CCc4c(cc(Cn5ccnc5)cc4-c4cn(C)nc4C(F)(F)F)C3=O)ccnc2c(OC)n1 + COC1C(OC(N)=O)C(O)C(Oc2ccc3c(O)c(NC(=O)c4ccc(O)c(CC=C(C)C)c4)c(=O)oc3c2C)OC1(C)C", "ATTRIBUTE_MEASURED": "viability, T/C", "QUANTITY_UNIT": "%", "REPORTED_VALUE": 94.8}
{"MOLECULE": "CC(C)n1c(=O)n(C)c2cnc3cc(F)c(-c4ccc(OCCCN5CCCCC5)nc4)cc3c21 + COC1C(OC(N)=O)C(O)C(Oc2ccc3c(O)c(NC(=O)c4ccc(O)c(CC=C(C)C)c4)c(=O)oc3c2C)OC1(C)C", "ATTRIBUTE_MEASURED": "viability, T/C", "QUANTITY_UNIT": "%", "REPORTED_VALUE": 103}
{"MOLECULE": "CNCc1ccc(-c2[nH]c3cc(F)cc4c3c2CCNC4=O)cc1 + Cc1cccc(N(C)C(=O)C2C(O)CCN2c2nc(C)cc(C(F)(F)F)c2C#N)c1", "ATTRIBUTE_MEASURED": "viability, T/C", "QUANTITY_UNIT": "%", "REPORTED_VALUE": 104}
{"MOLECULE": "Nc1ccn(C2OC(CO)C(O)C2(F)F)c(=O)n1 (stereo not given) + Nc1ccc(C#CCN(C(=O)Cc2ncc(C(F)(F)F)cc2C(F)(F)F)c2ccc(F)cc2)nn1", "ATTRIBUTE_MEASURED": "viability, T/C", "QUANTITY_UNIT": "%", "REPORTED_VALUE": 105}
{"MOLECULE": "CCc1cc2c(N3CCc4c(cc(Cn5ccnc5)cc4-c4cn(C)nc4C(F)(F)F)C3=O)ccnc2c(OC)n1 + Nc1ccc(C#CCN(C(=O)Cc2ncc(C(F)(F)F)cc2C(F)(F)F)c2ccc(F)cc2)nn1", "ATTRIBUTE_MEASURED": "viability, T/C", "QUANTITY_UNIT": "%", "REPORTED_VALUE": 116}

###

System: 266295-075-R-J1-PDC spheroid viability
Test: Anticancer human tumor 266295-075-R-J1-PDC cell line growth inhibition [POLQ];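 further: spheroids exposed to compounds for seven days before readout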
Settings: second compound 0.1 µM; first compound 0.001 µM; active compounds read low; spheroids with HUVEC and MSC
Measured viability, T/C of individual entries
ATTRIBUTE_MEASURED: viability, T/C (%)

{"COMPOUND": "Cn1ncnc1[C@H]1c2n[nH]c(=O)c3cc(F)cc(c23)N[C@@H]1c1ccc(F)cc1 + COC1C(OC(N)=O)C(O)C(Oc2ccc3c(O)c(NC(=O)c4ccc(O)c(CC=C(C)C)c4)c(=O)oc3c2C)OC1(C)C", "REPORTED_VALUE": 92.7}
{"COMPOUND": "CC[C@@]1(O)C(=O)OCc2c1cc1n(c2=O)Cc2cc3c(CN(C)C)c(O)ccc3nc2-1 + Cc1cccc(N(C)C(=O)C2C(O)CCN2c2nc(C)cc(C(F)(F)F)c2C#N)c1", "REPORTED_VALUE": 90.1}
{"COMPOUND": "CC[C@@]1(O)C(=O)OCc2c1cc1n(c2=O)Cc2cc3c(CN(C)C)c(O)ccc3nc2-1 + Nc1ccc(C#CCN(C(=O)Cc2ncc(C(F)(F)F)cc2C(F)(F)F)c2ccc(F)cc2)nn1", "REPORTED_VALUE": 110}
{"COMPOUND": "Cn1ncnc1[C@H]1c2n[nH]c(=O)c3cc(F)cc(c23)N[C@@H]1c1ccc(F)cc1 + Cc1cccc(N(C)C(=O)C2C(O)CCN2c2nc(C)cc(C(F)(F)F)c2C#N)c1", "REPORTED_VALUE": 104}
{"COMPOUND": "Cn1ncnc1[C@H]1c2n[nH]c(=O)c3cc(F)cc(c23)N[C@@H]1c1ccc(F)cc1 + Nc1ccc(C#CCN(C(=O)Cc2ncc(C(F)(F)F)cc2C(F)(F)F)c2ccc(F)cc2)nn1", "REPORTED_VALUE": 107}
{"COMPOUND": "CC[C@@]1(O)C(=O)OCc2c1cc1n(c2=O)Cc2cc3c(CN(C)C)c(O)ccc3nc2-1 + COC1C(OC(N)=O)C(O)C(Oc2ccc3c(O)c(NC(=O)c4ccc(O)c(CC=C(C)C)c4)c(=O)oc3c2C)OC1(C)C", "REPORTED_VALUE": 87.7}

###

Test system: 266295-075-R-J1-PDC spheroid viability
Assay: Anticancer human tumor 266295-075-R-J1-PDC cell line growth inhibition [POLQ];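 further: spheroids exposed to compounds for seven days before readout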
Settings: second compound 10 µM; first compound 3.16 µM; active compounds read low; spheroids with HUVEC and MSC
ATTRIBUTE_MEASURED: viability, T/C (%)

{"MOLECULE": "COc1cc2cc(C(=O)CCC(=O)O)sc2cc1OC + Cc1cccc(N(C)C(=O)C2C(O)CCN2c2nc(C)cc(C(F)(F)F)c2C#N)c1", "QUANTITY_UNIT": "%", "REPORTED_VALUE": 109}
{"MOLECULE": "COc1cc(C2c3cc4c(cc3C(OC3OC5COC(C)OC5C(O)C3O)C3COC(=O)C23)OCO4)cc(OC)c1O (configuration not stated) + COC1C(OC(N)=O)C(O)C(Oc2ccc3c(O)c(NC(=O)c4ccc(O)c(CC=C(C)C)c4)c(=O)oc3c2C)OC1(C)C", "QUANTITY_UNIT": "%", "REPORTED_VALUE": 110}
{"MOLECULE": "C=CC(=O)N1CCN(c2nc(=O)n(-c3c(C)ccnc3C(C)C)c3nc(-c4c(O)cccc4F)c(F)cc23)C(C)C1 (configuration not stated) + COC1C(OC(N)=O)C(O)C(Oc2ccc3c(O)c(NC(=O)c4ccc(O)c(CC=C(C)C)c4)c(=O)oc3c2C)OC1(C)C", "QUANTITY_UNIT": "%", "REPORTED_VALUE": 109}
{"MOLECULE": "O=C(Nc1ccc(O)c(NS(=O)(=O)c2ccc(F)cc2)c1)c1ccc(-c2ccccc2)cc1 + COC1C(OC(N)=O)C(O)C(Oc2ccc3c(O)c(NC(=O)c4ccc(O)c(CC=C(C)C)c4)c(=O)oc3c2C)OC1(C)C", "QUANTITY_UNIT": "%", "REPORTED_VALUE": 130}
{"MOLECULE": "C#Cc1c(F)ccc2cc(O)cc(-c3ncc4c(N5CC6CCC(C5)N6)nc(OCC56CCCN5CC(F)C6)nc4c3F)c12 (configuration not stated) + Cc1cccc(N(C)C(=O)C2C(O)CCN2c2nc(C)cc(C(F)(F)F)c2C#N)c1", "QUANTITY_UNIT": "%", "REPORTED_VALUE": 65.7}
{"MOLECULE": "COc1cc(C2c3cc4c(cc3C(OC3OC5COC(C)OC5C(O)C3O)C3COC(=O)C23)OCO4)cc(OC)c1O (configuration not stated) + Cc1cccc(N(C)C(=O)C2C(O)CCN2c2nc(C)cc(C(F)(F)F)c2C#N)c1", "QUANTITY_UNIT": "%", "REPORTED_VALUE": 72.5}
{"MOLECULE": "O=C(c1cc(Cc2n[nH]c(=O)c3ccccc23)ccc1F)N1CCN(C(=O)C2CC2)CC1 + Nc1ccc(C#CCN(C(=O)Cc2ncc(C(F)(F)F)cc2C(F)(F)F)c2ccc(F)cc2)nn1", "QUANTITY_UNIT": "%", "REPORTED_VALUE": 77}
{"MOLECULE": "C=CC(=O)N1CCN(c2nc(=O)n(-c3c(C)ccnc3C(C)C)c3nc(-c4c(O)cccc4F)c(F)cc23)C(C)C1 (configuration not stated) + Nc1ccc(C#CCN(C(=O)Cc2ncc(C(F)(F)F)cc2C(F)(F)F)c2ccc(F)cc2)nn1", "QUANTITY_UNIT": "%", "REPORTED_VALUE": 105}
{"MOLECULE": "O=C(c1cc(Cc2n[nH]c(=O)c3ccccc23)ccc1F)N1CCN(C(=O)C2CC2)CC1 + COC1C(OC(N)=O)C(O)C(Oc2ccc3c(O)c(NC(=O)c4ccc(O)c(CC=C(C)C)c4)c(=O)oc3c2C)OC1(C)C", "QUANTITY_UNIT": "%", "REPORTED_VALUE": 112}
{"MOLECULE": "CC(C)n1c(=O)n(C)c2cnc3cc(F)c(-c4ccc(OCCCN5CCCCC5)nc4)cc3c21 + COC1C(OC(N)=O)C(O)C(Oc2ccc3c(O)c(NC(=O)c4ccc(O)c(CC=C(C)C)c4)c(=O)oc3c2C)OC1(C)C", "QUANTITY_UNIT": "%", "REPORTED_VALUE": 83.3}
{"MOLECULE": "CCc1cc2c(N3CCc4c(cc(Cn5ccnc5)cc4-c4cn(C)nc4C(F)(F)F)C3=O)ccnc2c(OC)n1 + COC1C(OC(N)=O)C(O)C(Oc2ccc3c(O)c(NC(=O)c4ccc(O)c(CC=C(C)C)c4)c(=O)oc3c2C)OC1(C)C", "QUANTITY_UNIT": "%", "REPORTED_VALUE": 145}
{"MOLECULE": "CCCS(=O)(=O)Nc1ccc(F)c(C(=O)c2c[nH]c3ncc(-c4ccc(Cl)cc4)cc23)c1F + COC1C(OC(N)=O)C(O)C(Oc2ccc3c(O)c(NC(=O)c4ccc(O)c(CC=C(C)C)c4)c(=O)oc3c2C)OC1(C)C", "QUANTITY_UNIT": "%", "REPORTED_VALUE": 144}

Origin of values: PubChem BioAssay AID1963853
